The origin of these recorded values is the supplement of paper PMC7125110.

B1: glmS ribozyme (parent)
chain: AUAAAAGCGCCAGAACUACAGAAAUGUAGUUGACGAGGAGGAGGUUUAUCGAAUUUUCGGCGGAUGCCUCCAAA

- Variants of: B1
- ASSAY_OVERVIEW: self-cleavage kobs at 2500 uM GlcN6P; higher = faster cleavage; RNA array
- STATED_CONDITIONS: with glucosamine-6-phosphate
Variants at the floor of the assay were thinned out.
QUANTITY_KIND: self-cleavage kobs at 2500 uM GlcN6P (s⁻¹)
Please state the figure in s⁻¹; there is no need to write the unit.

Use these answered entries as a reference point.
C19U G41C U55C C70A    0.000203
U30A U54C    0.00215
A36C U47G U69G    0.000213
A12U G60A    4.12e-05
A42G A52G U65G    8.47e-05
A52G U69C    0.000269
A14U C50U    3.01e-05
A12U G37A U56G    0.00379

Shift focus to the following entry.
Request: Give the measured self-cleavage kobs at 2500 uM GlcN6P for U31C U49G
Response: 4.27e-05
